pKi: −log10 of the molar value.
Assay read-out pKi on Rho-associated protein kinase 1 (Homo sapiens, UniProt Q13464); records merged from the literature.

Study these solved cases before continuing.
N[C@@H](Cc1ccc(Oc2ccnc3[nH]cc(-c4ccc(O)cc4)c23)cc1)C(=O)N1CCN(Cc2ccccc2)CC1 :: > 8.52
CCOC(=O)c1cc2n(n1)C(c1nc3ccccc3s1)C(C(=O)Nc1ccc3cnccc3c1)=C(C)N2 (centres unmarked) :: > 7.30
Cc1c[nH]c2nccc(Oc3ccc(C[C@H](N)C(=O)N4CCN(Cc5ccc(OCCCN(C)C)cc5)CC4)cc3F)c12 :: > 8.52
c1ccc(CNc2cncc(-c3c[nH]c4nccc(Oc5ccc6c(c5)CNCC6)c34)c2)cc1 :: 7.52 to 8.52
C[C@H](Nc1nc(-c2c[nH]c3ncc(Cl)cc23)ncc1F)C(=O)N(C)C :: 5.30 to 6.30

input: For O=C(CCc1ccccc1)Nc1nc(-c2c[nH]c3nccc(F)c23)cs1 , what is its reported pKi?
output: > 6.30

input: Any idea what its pKi is? The compound is Fc1cnc(-c2c[nH]c3ncc(Cl)cc23)nc1Nc1ccc(-n2ccnc2)cc1
output: 5.30 to 6.30

input: Endpoint output: pKi of COc1cnc2[nH]cc(-c3cccc(N4CCCN(C(C)=O)CC4)n3)c2c1 . Value?
output: 5.30 to 6.30

----------
Literature survey of Ki (system: Rho-associated protein kinase 1 (Homo sapiens)).

O=C(Cc1cccc(O)c1)Nc1cc(-c2ccnc(Cl)c2)cs1 :: < 100 nM

input: Entry O=C(CN1CCCCC1)Nc1cc(-c2c[nH]c3nccc(Oc4ccc5c(c4)CNCC5)c23)ccn1 : reported Ki = ?
output: < 3 nM

input: Need Ki of COC(=O)c1ccc(NCc2ccccc2)nc1-c1c[nH]c2ncc(Cl)cc12 , thanks.
output: 500 to 5000 nM

input: Requested field: Ki. Item: C=C(C)COc1cnc2[nH]cc(-c3cccc(N4C[C@@H](C)N(C(C)=O)[C@@H](C)C4)n3)c2c1
output: 500 to 5000 nM

input: Can you look up the measured Ki of C[C@H](Nc1nc(-c2c[nH]c3ncc(Cl)cc23)ncc1F)c1cccc(OCCCN(C)C)c1 for me?
output: 500 to 5000 nM

input: Ki lookup needed for c1ccc(-c2cnc3[nH]cc(-c4cccc(N5CCCC5)n4)c3c2)cc1 , thanks.
output: 500 to 5000 nM

input: // returns reported Ki for input CC(=O)N1[C@H](C)CN(c2cccc(-c3c[nH]c4ncc(C(=O)NC5CCCCC5)cc34)n2)C[C@@H]1C
output: 500 to 5000 nM

input: Could you tell me which Ki is on file for CC(=O)N1[C@H](C)CN(c2cccc(-c3c[nH]c4ncc(NC(=O)c5ccccc5F)cc34)n2)C[C@@H]1C ?
output: < 500 nM

----------
Dear all, I have gathered published Ki values for UniProtKB Q13464; the list follows.

COc1cccc(CNC(=O)c2ccc(-c3c[nH]c4ncccc34)s2)c1 :: < 500 nM
Cc1cc(-c2csc(NC(=O)Cc3cccc(OCCCN4CCN(C)CC4)c3)c2)ccn1 :: 100 to 1000 nM
COc1ccc(CNc2cccc(-c3c[nH]c4ncc(Cl)cc34)n2)cc1 :: 500 to 5000 nM

input: Query the reported Ki for UniProtKB Q13464; item: CC(=O)N1[C@H](C)CN(c2cccc(-c3c[nH]c4ncc(NC(=O)c5cccs5)cc34)n2)C[C@@H]1C
output: 500 to 5000 nM

input: Entry CSc1nccc(CN2CCN(C(=O)[C@@H](N)Cc3ccc(Oc4ccnc5[nH]cc(C)c45)c(F)c3)CC2)n1 , system UniProtKB Q13464: what Ki was measured?
output: < 3 nM

input: For the record Cc1c[nH]c2nccc(Oc3ccc([C@H]4CCN[C@@H]4C(=O)NCCCN(C)C)cc3)c12 (racemic) , what value of Ki is listed for UniProtKB Q13464?
output: 3 to 30 nM

input: Test system UniProtKB Q13464; read-out Ki; what value for CC1=C(C(=O)Nc2ccc3cnccc3c2)C(c2ccc(C(F)(F)F)c(F)c2)n2nc(N3CCN(C)CC3)cc2N1 (stereo not shown) ?
output: < 50 nM

input: API: value(readout= Ki, system= UniProtKB Q13464, query= Cc1c[nH]c2nccc(Oc3ccc(C[C@H](N)C(=O)N4CCN(Cc5ccccc5)CC4)cc3)c12 )
output: < 3 nM

input: Entry Cc1c[nH]c2nccc(Oc3ccc(C[C@H](N)C(=O)N4CCN(C(=O)C5CC5)CC4)cc3F)c12 , system UniProtKB Q13464: what Ki was measured?
output: < 3 nM

input: API: value(readout= Ki, system= UniProtKB Q13464, query= Cc1c[nH]c2nccc(Oc3ccc(C[C@H](N)C(=O)N4CC(CN(C)C)C4)cc3F)c12 )
output: < 3 nM

input: Kindly state the measured Ki obtained for CN1CCC(CNc2nc(-c3c[nH]c4ncc(Cl)cc34)ncc2F)CC1 with UniProtKB Q13464.
output: 500 to 5000 nM

input: For UniProtKB Q13464, provide Ki of O=C(Cc1cccc(O)c1)Nc1nc(-c2ccnc(Cl)c2)cs1 please.
output: < 100 nM

input: GET /values?readout=Ki&system=UniProtKB Q13464&item= O=C(Cc1ccc2c(c1)OCO2)Nc1nc(-c2c[nH]c3nccc(F)c23)cs1
output: < 500 nM

input: Find Ki (UniProtKB Q13464) for the entry O=C(Nc1cccc(-c2c[nH]c3ncc(Cl)cc23)n1)c1cccnc1
output: 500 to 5000 nM

input: Form entry - test system: UniProtKB Q13464; read-out: Ki; compound: Cc1c[nH]c2nccc(Oc3ccc(CN4CCOCC4)cc3)c12
output: > 50 nM

input: Lab note: need Ki with UniProtKB Q13464 for entry COCCNC(=O)C1(NC(=O)[C@@H](N)Cc2ccc(Oc3ccnc4[nH]cc(C)c34)c(F)c2)CCCCC1 , please look it up.
output: < 3 nM

----------
pKi: −log10 of the molar value.
// molecules with pKi on Rho-associated protein kinase 1 (Homo sapiens), multi-source literature

These recorded examples may help you get a feel for the data.
Cc1c[nH]c2nccc(Oc3ccc(C[C@H](N)C(=O)NC4(CN(C)C)CCCCC4)cc3F)c12 :: > 8.52
CC(=O)N1[C@H](C)CN(c2cccc(-c3c[nH]c4ncc(NC(=O)C5CCCCC5)cc34)n2)C[C@@H]1C :: 5.30 to 6.30
C[C@H](Nc1nc(-c2c[nH]c3ncc(Cl)cc23)ncc1F)C(=O)NCCNC(=O)OC(C)(C)C :: 5.30 to 6.30

Now for a further molecule.
input: Requested field: pKi. Item: COCCNc1cc(-c2c[nH]c3nccc(Oc4ccc5c(c4)CNCC5)c23)ccn1
output: 7.52 to 8.52

----------
pKi: −log10 of the molar value.
Please find below pKi data on Rho-associated protein kinase 1 (Homo sapiens, UniProt Q13464) compiled from the literature.

COc1cccc(CC(=O)Nc2csc(-c3c[nH]c4ncccc34)n2)c1 :: > 6.30
O=C(Cc1cccc(S(=O)(=O)N2CCC(O)C2)c1)Nc1nc(-c2c[nH]c3ncccc23)cs1 (centres unmarked) :: > 6.30
Cc1c[nH]c2ncnc(Oc3ccc(C[C@H](N)C(=O)N4CCC(S(=O)(=O)c5ccccc5)CC4)cc3F)c12 :: > 8.52
Fc1cnc2[nH]cc(-c3cccc(NCc4ccccc4)n3)c2c1 :: 5.30 to 6.30
O=C(Cc1ccc(F)cc1)Nc1nc(-c2ccnc(Cl)c2)cs1 :: 6.00 to 7.00

input: What measured pKi is associated with O=C(NC1CC1)C1CCN(c2cc(-c3c[nH]c4nccc(Oc5ccc6c(c5)CNCC6)c34)ccn2)C1 (centres unmarked) on Rho-associated protein kinase 1 (Homo sapiens, UniProt Q13464)?
output: > 8.52

input: Short answer please: pKi, Rho-associated protein kinase 1 (Homo sapiens, UniProt Q13464), entry COCC#Cc1cnc2[nH]cc(-c3ncc(F)c(N[C@@H](C)c4ccc(F)cc4)n3)c2c1
output: 5.30 to 6.30

input: Form entry - test system: Rho-associated protein kinase 1 (Homo sapiens, UniProt Q13464); read-out: pKi; compound: CN1CCN(CCOc2ccc(CC(=O)Nc3nc(-c4c[nH]c5ncccc45)cs3)c(Cl)c2)CC1
output: > 6.30

----------
Field pKi: reported value for Rho-associated protein kinase 1 (Homo sapiens, UniProt Q13464); entries drawn from several documents.
pKi: −log10 of the molar value.

Look over these answered cases.
Cc1c[nH]c2nccc(Oc3ccc([C@H]4CCN[C@@H]4C(=O)NC4CCN(C)CC4)cc3)c12 (racemic) :: 7.52 to 8.52
Cc1c[nH]c2nccc(Oc3ccc(CC(N)C(=O)N4CCN(CCc5ccccc5)CC4)cc3F)c12 (centres unmarked) :: > 8.52
c1cncc(CNc2cc(-c3c[nH]c4nccc(Oc5ccc6c(c5)CNCC6)c34)ccn2)c1 :: > 8.52
COCC(=O)Nc1cnc2[nH]cc(-c3cccc(N4C[C@@H](C)N(C(C)=O)[C@@H](C)C4)n3)c2c1 :: 5.30 to 6.30

input: # get_value(readout='pKi', item= CS(=O)(=O)Nc1cccc(CC(=O)Nc2nc(-c3c[nH]c4nccc(F)c34)cs2)c1 )
output: > 6.30

input: Which pKi is reported for this compound? Cc1cc(-c2csc(NC(=O)Cc3ccccc3)c2)ccn1
output: 6.00 to 7.00

input: Consider the compound CCN(CC)S(=O)(=O)c1cccc(CC(=O)Nc2nc(-c3c[nH]c4nccc(F)c34)cs2)c1 and give its measured pKi.
output: > 6.30

input: What value of pKi has been reported for the following compound? O=S(=O)(CCNc1cc(-c2c[nH]c3nccc(Oc4ccc5c(c4)CNCC5)c23)ncn1)c1ccccc1
output: > 8.52

input: For Cc1c[nH]c2nccc(Oc3ccc(CC(N)C(=O)NCC4CCN(Cc5ccccc5)CC4)cc3F)c12 (centres unmarked) , what is its reported pKi?
output: > 8.52

input: What value of measured pKi is listed for Cc1c[nH]c2nccc(Oc3ccc(C(C)N)cc3)c12 (centres unmarked) ?
output: 7.30 to 8.30

input: // lookup pKi for O=C(CCc1ccccc1)Nc1nc(-c2c[nH]c3ncccc23)cs1
output: > 6.30

input: Fill in: pKi of COc1cccc(CC(=O)Nc2nc(-c3ccnc(NCc4ccccc4)c3)cs2)c1 is ___
output: < 6.00

input: Requested read-out: pKi. Entry: Fc1cc2c(cc1Oc1ncnc3[nH]cc(-c4ccnc(NCc5ccccc5)c4)c13)CNCC2
output: 7.52 to 8.52

input: Entry O=C(Cc1cc2c(cc1Cl)OCO2)N(c1nc(-c2c[nH]c3ncccc23)cs1)C1CC1 : reported pKi = ?
output: > 6.30

input: Look at this compound and give its reported pKi. CC(C)OCCCNC(=O)[C@H](C)Nc1nc(-c2c[nH]c3ncc(Cl)cc23)ncc1F
output: 5.30 to 6.30

input: Would you kindly share the measured pKi for CCOc1cc(-c2csc(NC(=O)Cc3cccc(OC)c3)n2)ccn1 ?
output: < 6.00

input: What value of pKi has been reported for the following compound? C[C@H](Nc1ccnc(-c2c[nH]c3ncc(Cl)cc23)n1)C(=O)NCC(F)(F)F
output: 5.30 to 6.30

input: Which pKi is listed for O=C(Cc1cccc(S(=O)(=O)NCCCN2CCNCC2)c1)Nc1nc(-c2c[nH]c3ncccc23)cs1 ?
output: > 6.30

input: I am curious: what pKi value has been reported for Cc1c[nH]c2ncnc(Oc3ccc(C[C@H](N)C(=O)N4CCC(c5ccncc5)CC4)cc3F)c12 ?
output: 7.52 to 8.52

input: Reported pKi for O=C(Cc1ccccc1F)Nc1nnc(-c2c[nH]c3ncccc23)s1 : what is it?
output: > 6.30
